procedure.summary: Stability of example compounds in solid form (HPLC)
Format: physicochemical
applied.conditions: purity by HPLC before the study
Description: […] The stability of the compounds of formula I were examined in solid form at two different temperatures: 0° C., and −20° C. […] Before the study, purities of the precursors were determined individually by HPLC analysis. […]
measured.property: Solid (%) Start
Value expressed in %; do not type the unit.

CC(C)(C)OC(=O)[C@@H](CCCOS(=O)(=O)c1ccc(-c2ccccc2)cc1)C[C@H](NC(c1ccccc1)(c1ccccc1)c1ccccc1)C(=O)OC(C)(C)C; 98.8
CC(C)(C)OC(=O)[C@@H](CCCOS(=O)(=O)c1cccc([N+](=O)[O-])c1)C[C@H](NC(c1ccccc1)(c1ccccc1)c1ccccc1)C(=O)OC(C)(C)C; 96.7

Recorded Solid (%) Start (compound CC(C)(C)OC(=O)[C@@H](CCCOS(=O)(=O)c1ccc([N+](=O)[O-])c(C(F)(F)F)c1)C[C@H](NC(c1ccccc1)(c1ccccc1)c1ccccc1)C(=O)OC(C)(C)C ): 97.6

* * *

procedure.summary: Stability of example compounds in solid form (HPLC)
Type: physicochemical
applied.conditions: solid, amber vial under Ar, 1 week, −20° C.
measured.property: Solid (%) 1 week −20° C.

Past entries and their recorded results:
CC(C)(C)OC(=O)[C@@H](CCCOS(=O)(=O)c1ccc([N+](=O)[O-])cc1)C[C@H](NC(c1ccccc1)(c1ccccc1)c1ccccc1)C(=O)OC(C)(C)C [Ia]; 99.4%
CC(C)(C)OC(=O)[C@@H](CCCOS(=O)(=O)c1cccc([N+](=O)[O-])c1)C[C@H](NC(c1ccccc1)(c1ccccc1)c1ccccc1)C(=O)OC(C)(C)C [Ib]; 96.6%
CC(C)(C)OC(=O)[C@@H](CCCOS(=O)(=O)c1ccc(-c2ccccc2)cc1)C[C@H](NC(c1ccccc1)(c1ccccc1)c1ccccc1)C(=O)OC(C)(C)C [Ic]; 98.6%
CC(C)(C)OC(=O)[C@@H](CCCOS(=O)(=O)c1ccc([N+](=O)[O-])c(C(F)(F)F)c1)C[C@H](NC(c1ccccc1)(c1ccccc1)c1ccccc1)C(=O)OC(C)(C)C [Ih]; 94.6%
CC(C)(C)OC(=O)[C@@H](CCCOS(=O)(=O)c1c(Cl)cc(Cl)cc1Cl)C[C@H](NC(c1ccccc1)(c1ccccc1)c1ccccc1)C(=O)OC(C)(C)C [Ii]; 89.6%

# evaluate next
Value of measured Solid (%) 1 week −20° C. for the entry CC(C)(C)OC(=O)[C@@H](CCCOS(=O)(=O)c1cccc2ccccc12)C[C@H](NC(c1ccccc1)(c1ccccc1)c1ccccc1)C(=O)OC(C)(C)C [Ie] : 98.9%

* * *

procedure.summary: Stability of example compounds in solid form (HPLC)
Assay type: physicochemical
applied.conditions: solid, amber vial under Ar, 1 week, 0° C.
measured.property: Solid (%) 1 week 0° C.
Reply numerically in %, unit not repeated.

Past entries and their recorded results:
CC(C)(C)OC(=O)[C@@H](CCCOS(=O)(=O)c1ccc([N+](=O)[O-])cc1)C[C@H](NC(c1ccccc1)(c1ccccc1)c1ccccc1)C(=O)OC(C)(C)C [Ia]; 99.5
CC(C)(C)OC(=O)[C@@H](CCCOS(=O)(=O)c1c(Cl)cc(Cl)cc1Cl)C[C@H](NC(c1ccccc1)(c1ccccc1)c1ccccc1)C(=O)OC(C)(C)C [Ii]; 89.5
CC(C)(C)OC(=O)[C@@H](CCCOS(=O)(=O)c1cccc([N+](=O)[O-])c1)C[C@H](NC(c1ccccc1)(c1ccccc1)c1ccccc1)C(=O)OC(C)(C)C [Ib]; 96.5
CC(C)(C)OC(=O)[C@@H](CCCOS(=O)(=O)c1ccc(-c2ccccc2)cc1)C[C@H](NC(c1ccccc1)(c1ccccc1)c1ccccc1)C(=O)OC(C)(C)C [Ic]; 98.6
CC(C)(C)OC(=O)[C@@H](CCCOS(=O)(=O)c1cccc2ccccc12)C[C@H](NC(c1ccccc1)(c1ccccc1)c1ccccc1)C(=O)OC(C)(C)C [Ie]; 99.0

# evaluate next
In plain terms, CC(C)(C)OC(=O)[C@@H](CCCOS(=O)(=O)c1cccc2cccnc12)C[C@H](NC(c1ccccc1)(c1ccccc1)c1ccccc1)C(=O)OC(C)(C)C [If] has a documented Solid (%) 1 week 0° C. of 89.5
